Data origin, for the record: patent US20250197488A1

- Target desc: T1, human IL-11 (AAH12506.1, Pro22-Leu199) (human, UniProt P20809 22-199)
- T1 construct: The range Pro22-Leu199 counts on AAH12506.1; The Octet runs say only 'human IL-11'; also called hIL-11
- T1 chain: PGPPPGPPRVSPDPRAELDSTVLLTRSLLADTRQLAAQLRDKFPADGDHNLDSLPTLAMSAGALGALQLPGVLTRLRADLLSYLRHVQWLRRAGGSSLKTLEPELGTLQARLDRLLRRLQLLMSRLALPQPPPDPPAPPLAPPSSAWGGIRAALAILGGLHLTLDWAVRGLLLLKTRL
- Test description: BLI (Octet), antibody captured, human IL-11 in solution
Assay metric: kon (M⁻¹ s⁻¹)
Express your answer in M⁻¹ s⁻¹, writing the number without its unit.

Binder	kon, M⁻¹ s⁻¹
hz8C8-VHm1 + hz8C8-VLm7 (antibody, human IgG1, kappa, V domains shown, human IgG1 constant regions; also called hz8C8m7) VH: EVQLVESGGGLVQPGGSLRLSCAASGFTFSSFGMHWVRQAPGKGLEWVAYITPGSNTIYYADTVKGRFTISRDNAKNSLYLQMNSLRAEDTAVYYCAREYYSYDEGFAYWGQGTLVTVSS VL: EIVLTQSPATLSLSPGERATLSCSVSDLIPSQYLHWYQQKPGQAPRLLIYRTSNLASGIPARFSGSGSGTDFTLTISSLEPEDFAVYYCQQGVDVPFTFGQGTKLEIKR	822000
hz8C8-VHm1 + hz8C8-VLm7-m1 (antibody, human IgG1, kappa, V domains shown, human IgG1 constant regions) VH: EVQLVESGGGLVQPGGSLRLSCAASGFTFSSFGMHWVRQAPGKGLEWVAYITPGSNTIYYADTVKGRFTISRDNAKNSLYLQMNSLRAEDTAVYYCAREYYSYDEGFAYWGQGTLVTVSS VL: EIVLTQSPATLSLSPGERATLSCSVSDLIPSQYLHWYQQKPGQAPRLLIYRASNLASGIPARFSGSGSGTDFTLTISSLEPEDFAVYYCQQGVDVPFTFGQGTKLEIKR	1.05e+06
hz8C8-VHm2 + hz8C8-VL (antibody, human IgG1, kappa, V domains shown, human IgG1 constant regions) VH: EVQLVESGGGLVQPGGSLRLSCAASGFTFSSFGMHWVRQAPGKGLEWVAYITAGSNTIYYADTVKGRFTISRDNAKNSLYLQMNSLRAEDTAVYYCAREYYSYDEGFAYWGQGTLVTVSS VL: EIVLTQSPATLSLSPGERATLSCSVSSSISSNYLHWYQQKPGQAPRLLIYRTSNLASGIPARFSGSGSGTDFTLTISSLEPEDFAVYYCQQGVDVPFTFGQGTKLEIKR	806000
hz8C8-VHm1-m3 + hz8C8-VLm7-m3 (antibody, human IgG1, kappa, V domains shown, human IgG1 constant regions) VH: EVQLVESGGGLVQPGGSLRLSCAASGFTFSSFGMHWVRQAPGKGLEWVAYITPGSNTIYYADTVKGRFTISRDNAKNSLYLQMNSLRAEDTAVYYCAREYSSYDEGFAYWGQGTLVTVSS VL: EIVLTQSPATLSLSPGERATLSCSVSDLIPSQYLHWYQQKPGQAPRLLIYGASNLASGIPARFSGSGSGTDFTLTISSLEPEDFAVYYCQQGVDVPFTFGQGTKLEIKR	972000

// switching to the query binder
Enquiry: Record request: kon value, item hz8C8-VHm1 + hz8C8-VLm7-m3 (antibody, human IgG1, kappa, V domains shown, human IgG1 constant regions) VH: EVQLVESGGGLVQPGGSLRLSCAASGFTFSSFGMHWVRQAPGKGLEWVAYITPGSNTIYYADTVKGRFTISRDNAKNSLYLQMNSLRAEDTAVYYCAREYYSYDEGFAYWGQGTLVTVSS VL: EIVLTQSPATLSLSPGERATLSCSVSDLIPSQYLHWYQQKPGQAPRLLIYGASNLASGIPARFSGSGSGTDFTLTISSLEPEDFAVYYCQQGVDVPFTFGQGTKLEIKR
Return: 1.13e+06
